# testTarget: full-length hepatitis C viral protein NS3•4A (Hepatitis C virus genotype 1a, UniProt P27958)
# Construct: hexa-histidine (N); made in house; host or cells: Sf9 insect cells (baculovirus, pVL1392)
# testProtocol: biochemical
# Set-up: species or system HCV sub-type strain 1a
# protocolConditions: Enzyme Assay 2 (HCV NS3 Peptide Cleavage Assay) activity, apparent Ki class
measuredMetric: Ki

Some entries whose results are on file:
CNC(=O)C(=O)C(CC1CCC1)NC(=O)[C@@H]1C[C@]2(CC(c3cccc(Cl)c3)=NO2)CN1C(=O)[C@@H](NC(=O)CC1CCOC(C)(C)C1)C(C)(C)C (stereo partly drawn) [Compound 419]    100 to 500 nM
CCC[C@H](NC(=O)[C@@H]1C[C@]2(CC(c3cc(C)c(OC)cc3C)=NO2)CN1C(=O)[C@@H](NC(=O)CC1CCCCC1)C(C)(C)C)C(=O)C(=O)NC1CC1 [Compound 615]    100 to 500 nM
CCC[C@H](NC(=O)[C@@H]1C[C@]2(CC(c3cccc(Cl)c3)=NO2)CN1C(=O)[C@@H](NC(=O)CC1CCCCC1)C(C)(C)C)C(=O)C(=O)NCCc1cccc(OC)c1 [Compound 540]    100 to 500 nM
CCC[C@H](NC(=O)[C@@H]1C[C@]2(CC(c3cccc(Cl)c3)=NO2)CN1C(=O)[C@@H](NC(=O)CC1CCCCC1)C(C)(C)C)C(=O)C(=O)NCC1CC1 [Compound 265]    100 to 500 nM

Determine from records and report Ki for CCC[C@H](NC(=O)[C@@H]1C[C@]2(CC(c3ccccc3C#N)=NO2)CN1C(=O)[C@@H](NC(=O)CC1CCCCC1)C(C)(C)C)C(=O)C(=O)NC1CC1 [Compound 28]
100 to 500 nM

Determine from records and report Ki for CCC[C@H](NC(=O)[C@@H]1C[C@]2(CC(c3cccc(Cl)c3)=NO2)CN1C(=O)[C@@H](NC(=O)C1CCC(=O)N1)C(C)C)C(=O)C(=O)NC1CC1 (stereo partly drawn) [Compound 218]
> 500 nM

Determine from records and report Ki for CCC[C@H](NC(=O)[C@@H]1C[C@]2(CC(c3cc(Cl)nc4ccccc34)=NO2)CN1C(=O)[C@@H](NC(=O)CC1CCCCC1)C(C)(C)C)C(=O)C(=O)NC1CC1 [Compound 638]
< 100 nM

Determine from records and report Ki for CCC[C@H](NC(=O)[C@@H]1C[C@]2(CC(c3cccc(Cl)c3)=NO2)CN1C(=O)[C@@H](NC(=O)CC1CCCCC1)C(C)(C)C)C(=O)C(=O)NCCOC [Compound 404]
100 to 500 nM

Determine from records and report Ki for CNC(=O)C(=O)[C@H](CC1CC1)NC(=O)[C@@H]1C[C@]2(CC(c3cccc(Cl)c3)=NO2)CN1C(=O)[C@@H](NC(=O)CC1CCCCC1)C1(OC)CC1 [Compound 617]
100 to 500 nM
